Target protein (sequence): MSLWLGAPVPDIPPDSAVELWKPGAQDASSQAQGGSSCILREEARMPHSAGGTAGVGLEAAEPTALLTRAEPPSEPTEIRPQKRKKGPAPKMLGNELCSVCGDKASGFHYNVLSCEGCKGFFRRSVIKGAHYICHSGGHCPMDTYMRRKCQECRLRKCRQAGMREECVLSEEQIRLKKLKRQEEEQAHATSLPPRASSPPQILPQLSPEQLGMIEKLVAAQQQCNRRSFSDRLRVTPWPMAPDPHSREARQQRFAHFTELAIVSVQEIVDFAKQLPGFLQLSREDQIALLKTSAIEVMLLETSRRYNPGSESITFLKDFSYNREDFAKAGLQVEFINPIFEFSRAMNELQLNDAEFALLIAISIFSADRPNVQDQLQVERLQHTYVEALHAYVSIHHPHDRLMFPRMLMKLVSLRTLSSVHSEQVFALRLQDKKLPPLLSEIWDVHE
Reported metric: IC50 (µM)

Record excerpt, results attached:
Query :: Return reported IC50; argument: `Cn1c(C(=O)O)cc2cccc(NCc3cccc(-c4c(Cc5ccccc5)cnc5c(C(F)(F)F)cccc45)c3)c21`
Result :: 0.185

Query :: Return reported IC50; argument: `Cc1cc(C(=O)O)ccc1NCc1cccc(-c2c(Cc3ccccc3)cnc3c(C(F)(F)F)cccc23)c1`
Result :: 0.51

Query :: Return reported IC50; argument: `O=C(O)c1ccc(F)cc1NCc1cccc(-c2c(Cc3ccccc3)cnc3c(C(F)(F)F)cccc23)c1`
Result :: 0.331

Query :: Return reported IC50; argument: `Cc1ccc(CC(=O)O)c(NCc2cccc(-c3c(Cc4ccccc4)cnc4c(C(F)(F)F)cccc34)c2)c1C`
Result :: 0.961

P: O=C(N[C@@H](Cc1c[nH]cn1)C(=O)O)c1cccc(COc2cccc(-c3c(Cc4ccccc4)cnc4c(C(F)(F)F)cccc34)c2)c1
Q: O=C(O)CC1CCCc2c(OCc3cccc(-c4c(Cc5ccccc5)cnc5c(C(F)(F)F)cccc45)c3)cccc21 (stereo not shown)
R: O=C(O)c1cccc2c(NCc3cncc(-c4c(Cc5ccccc5)cnc5c(C(F)(F)F)cccc45)c3)cccc12
Query :: Order the 3 molecules from highest to lowest IC50. List the labels in the requested order.
Result :: R, P, Q
(R: 1.74 µM, P: 1.1 µM, Q: 0.131 µM)

* * *

Protein target, amino acids: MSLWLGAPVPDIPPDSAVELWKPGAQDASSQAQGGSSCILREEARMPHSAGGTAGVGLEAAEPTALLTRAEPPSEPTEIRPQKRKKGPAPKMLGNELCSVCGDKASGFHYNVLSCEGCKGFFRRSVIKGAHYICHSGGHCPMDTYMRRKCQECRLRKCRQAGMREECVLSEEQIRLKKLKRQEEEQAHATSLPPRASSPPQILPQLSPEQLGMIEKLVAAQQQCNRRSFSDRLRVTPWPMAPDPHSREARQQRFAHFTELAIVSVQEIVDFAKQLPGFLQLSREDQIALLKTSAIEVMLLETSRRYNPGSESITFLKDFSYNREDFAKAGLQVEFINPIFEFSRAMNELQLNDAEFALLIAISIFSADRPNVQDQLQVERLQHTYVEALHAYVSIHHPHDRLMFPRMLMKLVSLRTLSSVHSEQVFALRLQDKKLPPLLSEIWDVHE
pIC50: −log10 of the molar value.
Reported metric: pIC50

P: O=C(N[C@@H](Cc1c[nH]cn1)C(=O)O)c1ccc(COc2cccc(-c3c(Cc4ccccc4)cnc4c(C(F)(F)F)cccc34)c2)cc1
Q: Cc1c(CC(=O)O)ccc(NCc2cccc(-c3ccnc4c(C(F)(F)F)cccc34)c2)c1C
R: O=C(O)Cc1cccc2ccc(OCc3cccc(-c4ccnc5c(C(F)(F)F)cccc45)c3)cc12
S: Cc1c(C(=O)O)cc(Br)c(NCc2cccc(-c3c(Cc4ccccc4)cnc4c(C(F)(F)F)cccc34)c2)c1C
Query :: // sort entries: pIC50, high to low List the labels in the requested order.
Result :: P, S, R, Q

Data credit: patent US20090069373A1
